# ASSAYED_SYSTEM: Lysine-specific demethylase 4A (Homo sapiens) (UniProt O75164)
# Sequence (O75164 whole entry, looked up, the tested form may be a part): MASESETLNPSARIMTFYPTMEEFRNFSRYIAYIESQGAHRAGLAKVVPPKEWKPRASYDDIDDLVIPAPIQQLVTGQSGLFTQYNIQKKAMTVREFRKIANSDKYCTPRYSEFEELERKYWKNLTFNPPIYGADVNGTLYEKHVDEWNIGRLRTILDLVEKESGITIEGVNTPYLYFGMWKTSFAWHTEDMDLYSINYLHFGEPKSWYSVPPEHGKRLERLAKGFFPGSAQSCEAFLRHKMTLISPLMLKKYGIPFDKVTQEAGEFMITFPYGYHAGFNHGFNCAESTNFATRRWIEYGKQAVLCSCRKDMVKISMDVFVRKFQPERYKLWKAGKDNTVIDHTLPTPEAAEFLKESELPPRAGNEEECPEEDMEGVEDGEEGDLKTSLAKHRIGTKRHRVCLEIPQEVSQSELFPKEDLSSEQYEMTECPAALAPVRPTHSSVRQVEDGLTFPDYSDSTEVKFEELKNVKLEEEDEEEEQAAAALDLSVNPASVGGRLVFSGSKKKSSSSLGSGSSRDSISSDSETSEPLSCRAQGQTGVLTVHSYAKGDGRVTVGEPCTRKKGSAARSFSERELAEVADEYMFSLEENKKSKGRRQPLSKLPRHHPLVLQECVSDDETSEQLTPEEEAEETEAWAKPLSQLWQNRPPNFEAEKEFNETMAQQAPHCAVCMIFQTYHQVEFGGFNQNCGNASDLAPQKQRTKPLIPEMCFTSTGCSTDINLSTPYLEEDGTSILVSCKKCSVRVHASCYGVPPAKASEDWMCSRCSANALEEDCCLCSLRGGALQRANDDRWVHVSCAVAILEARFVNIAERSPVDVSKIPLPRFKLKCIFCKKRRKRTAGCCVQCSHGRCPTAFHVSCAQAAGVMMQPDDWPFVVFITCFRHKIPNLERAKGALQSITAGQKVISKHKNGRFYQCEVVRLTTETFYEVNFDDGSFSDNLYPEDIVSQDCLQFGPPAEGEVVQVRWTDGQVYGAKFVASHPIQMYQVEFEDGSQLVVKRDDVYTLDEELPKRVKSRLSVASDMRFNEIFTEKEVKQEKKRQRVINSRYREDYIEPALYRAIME
# PROTOCOL_TEXT: qHTS Assay for Inhibitors of JMJD2A-Tudor Domain; note: nearly all actives have a fitted effect of over 50% in size
# STATED_CONDITIONS: AlphaScreen JMJD2A-Tudor / H3K4me3 peptide binding; series mostly up to 114 µM
The whole screen tested about 390,000 compounds, of which about 17,000 (4.4%) were called active. Not shown: some 8% with an inconclusive outcome. Calls come from the whole dose curve; as a rule, active = well fitted inhibition curve with a large enough effect; inconclusive = small, poorly fitted or top-dose-only effect; inactive = no such curve, though single readings can be large or run the other way. The full list was thinned out, with actives kept by preference.
Return exactly one item of active, inactive

* CCCCOc1ccc(CN2C(=O)C(=O)c3cc(Br)cc(C)c32)cc1OC | active
* Cc1cc(NC(=O)CSc2ncc(C(=O)Nc3ccc(Cl)cc3)c(=O)n2C)no1 | inactive

Problem: What outcome does the record of this test show for O=C(COc1ccccc1[N+](=O)[O-])NC1CC1 ?
Solution: inactive

Problem: Continue with CCC(=O)NNc1cc(=O)c2c(=O)n(C)c(=O)n(C)c2[nH]1
Solution: inactive

Problem: Continue with CN(Cc1ccccc1)C(=O)c1cn(C)c2ccc(S(=O)(=O)N(C)C3CCCCC3)cc2c1=O
Solution: inactive
